test system: L1210 leukemia ip in BDF1 mice, survival T/C; assay: NCI In Vivo Anticancer Drug Screen. Data for tumor model L1210 Leukemia (intraperitoneal) in B6D2F1 (BDF1) mice; conditions: endpoint: mean survival time; dose: 200.0 mg/kg/injection; schedule: Q01DX009 (ip); vehicle: saline sonified; higher = longer survival
Inconclusive results and toxic doses are left out.
test.readout: T/C

As a guide, the following entries are already answered.
O=C1C(C2OC2c2ccccc2)CCCC1C1OC1c1ccccc1 (centres undefined): 97 % of control
CC1=NN(c2ccc(S(=O)(=O)O)cc2)C(=O)/C1=C/c1ccc(Cl)cc1: 100 % of control
CCCCCC(C)(C1=NC(C)(C)CC(C)O1)c1ccccc1 (centres undefined): 104 % of control

--- query ---
T/C measured on CC12OC(=O)CC1CC(=O)O2 (centres undefined) = 105 % of control

----------
system: L1210 leukemia ip in BDF1 mice, survival T/C; experiment: NCI In Vivo Anticancer Drug Screen. Data for tumor model L1210 Leukemia (intraperitoneal) in B6D2F1 (BDF1) mice; conditions: endpoint: mean survival time; dose: 200.0 mg/kg/injection; schedule: Q04DX002 (ip); vehicle: Klucel (hydroxypropylcellulose) (HPC); higher = longer survival
Toxic doses and inconclusive results are not listed.
T/C by entry:

O=C(Nc1cccc(C(F)(F)F)c1)c1ccco1: 95 % of control
O=C1Nc2ccc(Br)cc2C1=Nc1ccc(Cl)cc1: 92 % of control
CC(=O)Nc1ccc(Cl)cc1C(=O)c1ccccc1: 108 % of control

Value sought: T/C, system L1210 leukemia ip in BDF1 mice, survival T/C, item Cc1cc(C)c(NC(=O)c2c(Br)c(Br)c(Br)c(Br)c2C(=O)O)c(C)c1 . Result: 111 % of control

Value sought: T/C, system L1210 leukemia ip in BDF1 mice, survival T/C, item NS(=O)(=O)c1ccc(NC(=O)Nc2cccc(C(F)(F)F)c2)cc1 . Result: 91 % of control

Value sought: T/C, system L1210 leukemia ip in BDF1 mice, survival T/C, item COc1ccc([N+](=O)[O-])cc1NC(=O)Nc1cccc(C(F)(F)F)c1 . Result: 101 % of control

Value sought: T/C, system L1210 leukemia ip in BDF1 mice, survival T/C, item O=S(NOCc1ccccc1)c1ccccc1 (stereo not drawn) . Result: 107 % of control

Value sought: T/C, system L1210 leukemia ip in BDF1 mice, survival T/C, item Cc1cccc2ccccc12 . Result: 107 % of control

Value sought: T/C, system L1210 leukemia ip in BDF1 mice, survival T/C, item ClCc1nc2ccccc2s1 . Result: 103 % of control

Value sought: T/C, system L1210 leukemia ip in BDF1 mice, survival T/C, item CC(=O)Nc1cc(Cl)c([N+](=O)[O-])cc1C . Result: 113 % of control

Value sought: T/C, system L1210 leukemia ip in BDF1 mice, survival T/C, item OCC1(Br)CCC(Br)(CO)CC1 (stereo not drawn) . Result: 111 % of control

Value sought: T/C, system L1210 leukemia ip in BDF1 mice, survival T/C, item C/C(=C\c1ccccc1)C(=O)c1ccccc1 . Result: 92 % of control

Value sought: T/C, system L1210 leukemia ip in BDF1 mice, survival T/C, item CCCCCCCCCCCCCCCCN1CCN(CCCCCCCCCCCCCCCC)CC1 . Result: 101 % of control

----------
test system: L1210 leukemia ip in BDF1 mice, survival T/C; assay: NCI In Vivo Anticancer Drug Screen. Data for tumor model L1210 Leukemia (intraperitoneal) in B6D2F1 (BDF1) mice; conditions: endpoint: mean survival time; dose: 50.0 mg/kg/injection; schedule: Q01DX009 (ip); vehicle: saline with Tween-80; higher = longer survival
Toxic doses and inconclusive results are not listed.
T/C by entry:

As a guide, the following entries are already answered.
COc1ccc(C(=O)C(C)C=O)c(OCc2ccccc2)c1OC (stereo unspecified): 98 % of control
COc1cc(C=O)ccc1OC(=O)Nc1ccc(Cl)cc1C(F)(F)F: 89 % of control
O=C(NCc1cnccn1)Oc1ccc([N+](=O)[O-])cc1: 93 % of control
C=C(Br)CN(C)C: 117 % of control

T/C measured on COc1ccc(C(CC(=O)c2ccc3c(c2)OCO3)c2c(O)c3ccccc3oc2=O)cc1OC (stereo unspecified) = 96 % of control

T/C measured on Cc1c(Cl)c(C)c(Cl)c(O)c1Cl (tested in a mixture with another compound) = 93 % of control

----------
tested on: L1210 leukemia ip in BDF1 mice, survival T/C; assay: NCI In Vivo Anticancer Drug Screen. Data for tumor model L1210 Leukemia (intraperitoneal) in B6D2F1 (BDF1) mice; conditions: endpoint: mean survival time; dose: 100.0 mg/kg/injection; schedule: Q04DX003 (ip); vehicle: Klucel (hydroxypropylcellulose) (HPC); higher = longer survival
Inconclusive results and toxic doses are left out.
T/C by entry:

As a guide, the following entries are already answered.
O=[N+]([O-])c1cc(C=Nc2ccccc2)ccc1Cl: 94 % of control
O=C1c2cc(Cl)cc(Cl)c2-c2c(NC(=O)C(Cl)Cl)cc(Cl)cc21: 95 % of control
CCCCNC(=O)Nc1cc(C)cc(C)n1: 94 % of control
COC(=O)CCCCC(=O)OCC#CC#CCOC(=O)CCCCC(=O)OC: 91 % of control
O=C(c1ccccc1)C(Br)C(c1ccccc1)c1ccccc1 (stereo unspecified): 104 % of control

--- query ---
T/C measured on CCO/C([O-])=C/[P+](c1ccccc1)(c1ccccc1)c1ccccc1 = 96 % of control

----------
T/C by entry:
test system: L1210 leukemia ip in BDF1 mice, survival T/C; experiment: NCI In Vivo Anticancer Drug Screen. Data for tumor model L1210 Leukemia (intraperitoneal) in B6D2F1 (BDF1) mice; details: endpoint: mean survival time; dose: 100.0 mg/kg/injection; schedule: Q04DX003 (ip); vehicle: saline; higher = longer survival
Toxic doses and inconclusive results are not listed.

As a guide, the following entries are already answered.
O=C1CSC(=S)N1c1ccc2c(c1)OCO2: 94 % of control
C=CC(C)(C)C(=C)C: 110 % of control
CN1CCN(C(c2ccccc2)c2ccc(Cl)cc2)CC1 (centres undefined): 97 % of control

--- query ---
T/C measured on CC[As](=O)(O)CC = 101 % of control

----------
tested on: L1210 leukemia ip in BDF1 mice, survival T/C; assay: NCI In Vivo Anticancer Drug Screen. Data for tumor model L1210 Leukemia (intraperitoneal) in B6D2F1 (BDF1) mice; settings: endpoint: mean survival time; dose: 25.0 mg/kg/injection; schedule: Q01DX009 (ip); vehicle: saline; higher = longer survival
Toxic doses and inconclusive results are not listed.
T/C by entry:

As a guide, the following entries are already answered.
CCCCCCCCCCNCCC(=O)O: 104 % of control
CC(C)C1(C(C)C)OCC(CO)O1 (configuration not stated): 93 % of control
CC1(C)COC(Cc2ccccc2)=N1: 98 % of control
CCN(CC)C(C)COC(=O)c1ccc(N)cc1 (configuration not stated): 101 % of control
NCCc1ccc(OCc2ccccc2)c(OCc2ccccc2)c1: 97 % of control
NC(Cc1cc(I)c(O)c(I)c1)C(=O)O (configuration not stated): 92 % of control

T/C measured on CC(C)=NNC(N)=O = 100 % of control

----------
test system: L1210 leukemia ip in BDF1 mice, survival T/C; experiment: NCI In Vivo Anticancer Drug Screen. Data for tumor model L1210 Leukemia (intraperitoneal) in B6D2F1 (BDF1) mice; settings: endpoint: mean survival time; dose: 400.0 mg/kg/injection; schedule: Q04DX002 (ip); vehicle: saline with Tween-80; higher = longer survival
Inconclusive results and toxic doses are left out.
T/C by entry:

CC(C)CCCC(C)C1CCC2C3CC=C4CC(O[N+](=O)[O-])CCC4(C)C3CCC12C (configuration not stated): 102 % of control
O=C1c2ccccc2C(=O)N1CNc1ccccc1Cl: 88 % of control
O=C(Nc1ccc(S(=O)(=O)F)cc1)Oc1ccc([N+](=O)[O-])cc1: 88 % of control
CCOC(=O)C(=O)C(=O)OCC: 88 % of control
CSc1ccc(OC(=O)Nc2ccccc2C)cc1C: 118 % of control
CC(=O)OC1CC23CCC(=O)C2(CC3)C1 (configuration not stated): 99 % of control
COc1ccc(NS(=O)c2ccc(Oc3ccccc3)cc2)cc1 (configuration not stated): 93 % of control
Cc1ccc(N2C=C(c3ccccc3)CC2=O)cc1: 104 % of control
O=S(=O)(C1CC1)C1CC1: 94 % of control
CC#CCCC(=O)OCCCC: 97 % of control

T/C measured on CN(C(=O)c1ccc(Cl)c(Cl)c1)C(c1ccco1)P(=O)(c1ccccc1)c1ccccc1 (configuration not stated) = 93 % of control

T/C measured on CC/C=C(\C)CC(C)O (configuration not stated) = 90 % of control

Numbers sourced from PubChem BioAssay AID248.
